These entries and their values trace back to paper PMC3608651.

# target: HLA-A*24:02 (Homo sapiens, UniProt P04439, D101N/D140Y/D185E/E176V/E190D/F33S/G103R/G107R/I119L/I121M/I306V/K335N/L105A/L180Q/L300P/N151K/N90K/Q86E/Q94H/R106L/R138H/R89G/T104I/T345S/V100E/W191G/Y123F)
# Assay type: binding
# assay-conditions: percent relative the binding of positive control peptide […]; duplicated experiments; positive binder >40%
Please respond with reported Bind A*24:02 for every item in the list.
Numbers only, in %.

INSERT INTO measurements (substance, measured_number) VALUES
  ('ELGGANIPA', 0),
  ('AGCQTYKW E', 31),
  ('LIGLAMGDA', 0),
  ('LSMAGSSAM', 14),
  ('AYHPQQFIY', 60),
  ('IMYNYPTML [Rv0288_4–12m1]', 43),
  ('THSWEYWGA', 0),
  ('GGYKAADMW', 34);

Would you mind listing Bind A*24:02 for each of the following substances?
1. CGNGTPNEL
2. LAAYHPQQF
3. SSNLKFQDA
4. MGDAGGYKA

Response:
1. 2
2. 52
3. 12
4. 0

Would you mind listing Bind A*24:02 for each of the following substances?
1. ILAAYHPQQ
2. VKPTGSAAI
3. LVANNT RLW

Response:
1: 0; 2: 0; 3: 88
